experiment: Inhibition of aminoglycoside 6'-N-acetyltransferase Ib (unknown origin)-mediated acetylation expressed in Escherichia coli using kanamycin A and acetyl CoA as substrate at 100 uM preincubated for 10 mins followed by enzyme addition by spectrophotometric analysis relative to control
measured_property: inhibition (%)

> print(dat)
                                    molecule  measured.property  unit.label  observed.result
 1  O=C1C(=Cc2ccco2)C(=O)N(c2ccccc2)C(=S)N1c1ccccc1         inhibition           %                0
 2  COc1cccc(Nc2nc(C3(C)CC4(CC(C)OC4=O)C(=O)O3)cs2)c1 (stereo not given)         inhibition           %                0
 3  CCc1ccc(N2C(=O)NC(=O)/C(=C\c3ccccc3OCc3ccc(C(=O)O)cc3)C2=O)cc1         inhibition           %               30
 4  Cc1cccc(C)c1NC(=O)C(Cc1c[nH]c2ccccc12)NC(=O)Oc1ccccc1 (stereo not given)         inhibition           %                0
 5  S=C(N/N=C1/CCCc2c1[nH]c1ccc(C3CCCCC3)cc21)Nc1ccccc1         inhibition           %                0
 6  N#Cc1cccc(Oc2ccc(-c3nc4ccccc4nc3-c3ccccc3)cc2)c1C#N         inhibition           %                0
 7  Cn1c(COc2nnc(-c3ccccc3)c3ccccc23)nc2ccccc21         inhibition           %                0
 8  O=C1[C@@H]2[C@H](C(=O)N1/N=C/c1ccccc1OCc1ccc(Cl)cc1)[C@@H]1C=C[C@H]2C1         inhibition           %               12
 9  Cc1ncc(CNC2CCCc3nc(-c4ccccc4)ncc32)n1C (stereo not given)         inhibition           %                0
10  O=C1C(=Cc2ccc(-c3ccccc3[N+](=O)[O-])o2)C(=O)N(c2ccccc2)C(=S)N1c1ccccc1         inhibition           %                0
11  Cc1c(O)cccc1C(=O)N1CCC[C@@H]1c1nc(-c2ccccc2)no1         inhibition           %                0
12   c1ccc2oc(-c3nn4c(-c5ccncc5)nnc4s3)cc2c1         inhibition           %                0
13      Cc1ccnc(Nc2nc(-c3ccc4ccccc4c3)cs2)c1         inhibition           %                0
14  Cc1ccc2nc(NC(=S)NC(=O)c3oc4ccccc4c3C)sc2c1         inhibition           %                0
15  Cc1ccc2nc(C)cc(C(=O)OCC(=O)c3ccc(-c4ccccc4)cc3)c2c1         inhibition           %                0
16  Cc1cccc(C)c1NC(=O)COc1ccc2c3c(c(=O)oc2c1)CCCCC3         inhibition           %                0
17  COC(=O)c1ccc(N2C(=O)NC(=O)/C(=C\c3ccccc3OCc3ccc(C(=O)O)cc3)C2=O)cc1         inhibition           %                0
18  Cc1cccc(N2C(=O)/C(=C/c3ccc(OCc4cccc(C(=O)O)c4)cc3)C(=O)NC2=S)c1         inhibition           %               33
19  O=C1NC(=O)N(c2ccc3c(c2)OCO3)C(=O)/C1=C/c1ccc(-c2ccc(F)cc2)o1         inhibition           %                0
20  O=C1C(=Cc2ccc(-c3ccc(Cl)cc3[N+](=O)[O-])o2)C(=O)N(c2ccccc2)C(=S)N1c1ccccc1         inhibition           %                0
